Entries and their Stability
measurement notes: Metabolic stability in ob/ob mouse liver microsome; also: time not given here
Assay type: ADME
condition label: microsomes
Respond numerically; units are % and should not be typed.

Below, each entry is followed by its recorded Stability result.
Clc1ccccc1OC1CCN(c2ccc(-c3nc(Cc4ccccc4)no3)nn2)CC1 62.9
Fc1ccccc1OC1CCN(c2ccc(-c3nc(Cc4ccccc4)no3)nn2)CC1 64.8
c1ccc(Cc2nc(-c3ccc(N4CCC(Oc5ccccc5)CC4)nn3)no2)cc1 1.2
Cc1noc(-c2ccc(N3CCC(Oc4ccccc4C)CC3)nn2)n1 12.4
CNC(=O)c1ccc(N2CCC(Oc3ccccc3Cl)CC2)nn1 75.8

// recorded Stability for O=C(NCc1ncc[nH]1)c1ccc(N2CCC(Oc3ccccc3Cl)CC2)nn1 : 44

The molecule COc1ccccc1OC1CCN(c2ccc(-c3nc(C)no3)nn2)CC1 showed Stability equal to 53.5
